Catalogue of molecules with associated log10 IC50
- study.target: human MCH-1 receptor (Homo sapiens, UniProt Q99705)
- Construct: expressed in transfected cells
- Sequence (Q99705 whole entry): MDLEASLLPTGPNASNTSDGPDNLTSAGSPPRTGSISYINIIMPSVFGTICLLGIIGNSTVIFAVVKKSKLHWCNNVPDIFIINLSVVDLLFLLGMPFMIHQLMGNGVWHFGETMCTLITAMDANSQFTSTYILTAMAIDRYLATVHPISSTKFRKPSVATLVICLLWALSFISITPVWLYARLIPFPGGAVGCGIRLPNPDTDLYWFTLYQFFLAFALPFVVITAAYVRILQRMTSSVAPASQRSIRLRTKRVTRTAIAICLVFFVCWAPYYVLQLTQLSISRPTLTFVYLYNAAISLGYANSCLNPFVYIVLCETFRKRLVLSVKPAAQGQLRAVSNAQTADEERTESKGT
- test.description: Ca2+ mobilization experiment for the MCH-1 receptor (FLIPR), inhibition of MCH-induced Ca2+ mobilization
- Type: cell-based
- conditions.used: CHO cells stably expressing human MCH-1 receptor, inhibition of MCH-induced Ca2+ response, read-out: MCH-1 pIC50 (converted)
quantity.measured: log10 IC50 (log10 of the value in nM)

- COc1cc(-n2ccnc(NCCOc3ccccc3)c2=O)ccc1/C=C/CN1CCCC1: 1.50
- CCCN(C)CCOc1ccc(-n2ccnc(NCCOc3ccccc3)c2=O)cc1: 2.20
- CN1CCN(c2ccc(-n3ccnc(NCCc4ccccc4)c3=O)cc2Cl)CC1: 1.70
- O=c1c(NCCc2ccccc2)nccn1-c1ccc2nc(N3CCCCC3)ccc2c1: 2.30
- COc1cc(-n2ccnc(NCCc3ccccc3)c2=O)ccc1N1CCC(NC2CC2)C1 (centres unmarked): 1.70
- COc1cc(-n2ccnc(NCCOc3ccccc3)c2=O)ccc1OC1CCNCC1: 1.80
- COc1cc(-n2ccnc(NCCc3ccc(F)cc3)c2=O)ccc1OCCN1CCCC1: 1.40
- COc1cc(-n2ccnc(N3CCC(c4ccc(C)cc4)C3)c2=O)ccc1OCCN1CCCC1 (centres unmarked): 2.50
- COc1cc(-n2ccnc(SCCc3ccccc3)c2=O)ccc1N1CC[C@@H](N(C)C)C1: 1.20
- COc1cc(-n2ccnc(SCCc3ccccc3)c2=O)ccc1N1CCC(O)C1 (centres unmarked): 1.60
- COc1cc(-n2ccnc(NCCc3ccccc3)c2=O)ccc1OC[C@@H]1CCCN1C: 1.40
- COCC(=O)N(C)CCOc1ccc(-n2ccnc(NCCOc3ccccc3)c2=O)cc1OC: 2.00
- COc1cc(-n2ccnc(NCCc3ccccc3)c2=O)ccc1OCCN1CCCC(CO)C1 (centres unmarked): 1.50
- COc1cc(-n2ccnc(NCCCOc3ccc(Cl)cc3)c2=O)ccc1OCCN1CCCC1: 1.80
- COc1cc(-n2ccnc(NCCc3ccccc3)c2=O)ccc1OCCN(C)C1CC1: 1.50
- COc1cc(-n2ccnc(NCCc3ccccc3)c2=O)ccc1OCCCNC(=O)C(C)C: 2.10
- COc1cccc(OCCCNc2nccn(-c3ccc(OCCN4CCCC4)c(OC)c3)c2=O)c1: 2.60
- CN(C1CCN(c2ccc(-n3ccnc(NCCc4ccccc4)c3=O)cc2)C1)S(C)(=O)=O (centres unmarked): 2.00
- CCN(CCOc1ccc(-n2ccnc(NCCOc3ccccc3)c2=O)cc1)Cc1ccncc1: 3.00
- COc1cc(-n2ccnc(NCCc3ccccc3)c2=O)ccc1OCCN1CCCC1C(N)=O (centres unmarked): 1.90
- COc1cc(-n2ccnc(NCCOc3ccccc3)c2=O)ccc1OCC(C)N1CCCC1 (centres unmarked): 1.80
- CN(C)CC(=O)Nc1ccc(-n2ccnc(NCCOc3ccccc3)c2=O)cc1: 3.30
- COc1cc(-n2ccnc(N3CCC(Oc4ccccc4)CC3)c2=O)ccc1OCCN1CCCC1: 2.80
- CN[C@H]1CCN(c2ccc(-n3ccnc(SCCc4ccccc4)c3=O)cc2OC)C1: 1.00
- COc1cc(-n2ccnc(NCCc3ccccc3)c2=O)ccc1N1CCC(NC(C)=O)C1 (centres unmarked): 1.80
- COc1cc(-n2ccnc(NCCOc3ccccc3)c2=O)ccc1N1CCC(N(C)C)C1 (centres unmarked): 2.00
- COc1cc(-n2ccnc(NCCc3ccccc3)c2=O)ccc1OCCN1CCOC(CO)C1 (centres unmarked): 2.00
- COc1cc(-n2ccnc(NCCOc3ccccc3)c2=O)ccc1N1CCC(NC(=O)C(C)C)CC1: 2.00
- O=c1c(NCCOc2ccccc2)nccn1-c1ccc(C=CCN2CCCC2)cc1: 2.00
- CN(CCOc1ccc(-n2ccnc(NCCOc3ccccc3)c2=O)cc1)CCc1ccccc1: 2.90
- COc1cc(-n2ccnc(OCCOc3ccccc3)c2=O)ccc1OCCN1CCCC1: 2.00
- O=c1c(NCCOc2ccccc2)nccn1-c1ccc(OCCN2CCCC2)nc1: 3.60

* * *

Property: IC50; scope: individual compounds
- study.target: human MCH-1 receptor (Homo sapiens)
- Construct: expressed in transfected cells
- test.description: Ca2+ mobilization experiment for the MCH-1 receptor (FLIPR), inhibition of MCH-induced Ca2+ mobilization
- Format: cell-based
- conditions.used: CHO cells stably expressing human MCH-1 receptor, inhibition of MCH-induced Ca2+ response, read-out: MCH-1 pIC50 (converted)
quantity.measured: IC50

* COc1cc(-n2ccnc(NCCOc3ccccc3)c2=O)ccc1OCCN(C)C(C)=O | 100 nM
* COc1cc(-n2ccnc(NCCCOc3ccc(F)cc3)c2=O)ccc1OCCN1CCCC1 | 39.8 nM
* COc1cc(-n2ccnc(SCCc3ccccc3)c2=O)ccc1N1CC[C@H](N(C)C)C1 | 12.6 nM
* COc1cc(-n2ccnc(NCCc3ccccc3)c2=O)ccc1OCCN1CC(C)OC(C)C1 (stereo not shown) | 158 nM
* COc1cc(-n2ccnc(NCCOc3ccccc3)c2=O)ccc1OCCN1CCC(F)CC1 [1-69] | 5.01 nM
* CC(C)C(=O)N(C)C1CCN(c2ccc(-n3ccnc(NCCOc4ccccc4)c3=O)cc2)C1 (stereo not shown) | 39.8 nM
* COc1cc(-n2ccnc(NCCc3ccccc3)c2=O)ccc1OCCN1CCCC(C(N)=O)C1 (stereo not shown) | 39.8 nM
* COc1cc(-n2ccnc(NCCc3ccccc3)c2=O)ccc1OCCCN1CCCC(CO)C1 (stereo not shown) | 39.8 nM
* CN(C)CCN1CCc2cc(-n3ccnc(NCCOc4ccccc4)c3=O)ccc21 | 79.4 nM
* COc1cc(-n2ccnc(NCCc3ccccc3)c2=O)ccc1OC1CCNC1 (stereo not shown) | 39.8 nM
* CN(C)CCNc1ccc(-n2ccnc(NCCOc3ccccc3)c2=O)cc1 | 100 nM
* CNC1CCN(c2ccc(-n3ccnc(NCCOc4ccccc4)c3=O)cc2)C1 (stereo not shown) | 501 nM
* O=c1c(NCCc2ccccc2)nccn1-c1ccc2c(c1)OCC(CN1CCOCC1)=C2 | 79.4 nM

* * *

- study.target: human MCH-1 receptor (Homo sapiens, UniProt Q99705)
- Construct: expressed in transfected cells
- test.description: Ca2+ mobilization experiment for the MCH-1 receptor (FLIPR), inhibition of MCH-induced Ca2+ mobilization
- Type: cell-based
- conditions.used: CHO cells stably expressing human MCH-1 receptor, inhibition of MCH-induced Ca2+ response, read-out: MCH-1 pIC50 (converted)
Some compounds, each annotated with its measured IC50.
quantity.measured: IC50 (nM)

• COc1cc(-n2ccnc(NCCOc3ccccc3)c2=O)ccc1OCCN(C)C(=O)C1CCCC1 = 100
• COc1cc(-n2ccnc(NCCOc3ccccc3C)c2=O)ccc1OCCN1CCCC1 = 200
• CNC1CCN(c2ccc(-n3ccnc(NCCc4ccccc4)c3=O)cc2OC)C1 (centres unmarked) = 63.1
• COc1cc(-n2ccnc(SCCc3cccc(Cl)c3)c2=O)ccc1OCCN1CCCC1 = 126
• CC(=O)N(C)C1CCN(c2ccc(-n3ccnc(NCCOc4ccccc4)c3=O)cc2)C1 (centres unmarked) = 251
• CC(=O)N(C)CCOc1ccc(-n2ccnc(NCCOc3ccccc3)c2=O)cc1 = 501
• COc1cc(-n2ccnc(NCCc3ccc(Br)cc3)c2=O)ccc1OCCN1CCCC1 = 39.8
• O=c1c(NCCc2ccccc2)nccn1-c1ccc(N2CCN(CCO)CC2)c(Cl)c1 = 63.1
• O=c1c(NCCOc2ccccc2)nccn1-c1ccc2c(cnn2CCN2CCCC2)c1 = 398
• COc1cc(-n2ccnc(NCCc3cccc(Cl)c3)c2=O)ccc1OCCN1CCCC1 = 50.1
• O=c1c(NCCOc2ccccc2)nccn1-c1ccc(N2CCNCC2)cc1 = 2000

* * *

- study.target: human MCH-1 receptor (Homo sapiens, UniProt Q99705)
- Construct: expressed in transfected cells
- test.description: Ca2+ mobilization experiment for the MCH-1 receptor (FLIPR), inhibition of MCH-induced Ca2+ mobilization
- Format: cell-based
- conditions.used: CHO cells stably expressing human MCH-1 receptor, inhibition of MCH-induced Ca2+ response, read-out: MCH-1 pIC50 (converted)
Sorting guide: entries reporting IC50 beneath 100 nM go in the condition met pile, the rest go in the condition not met pile.

* COc1cc(-n2ccnc(NCCc3ccccc3)c2=O)ccc1OCCNC(C)=O | condition met
* COc1cc(-n2ccnc(NCCc3ccccc3)c2=O)ccc1OCCCNC(C)=O | condition not met
* COc1cc(-n2ccnc(NCCOc3ccccc3)c2=O)ccc1N1CCC(N)CC1 | condition met
* O=c1c(NCCOc2ccccc2)nccn1-c1ccc(NCCN2CCCC2)cc1 | condition not met
* CNCCOc1ccc(-n2ccnc(NCCOc3ccccc3)c2=O)cc1 | condition not met
* CN(C1CCN(c2ccc(-n3ccnc(NCCOc4ccccc4)c3=O)cc2)C1)S(C)(=O)=O (centres unmarked) | condition not met
* CN(CCO)CCOc1ccc(-n2ccnc(NCCOc3ccccc3)c2=O)cc1 | condition not met
* COc1cc(-n2ccnc(OCCc3ccccc3)c2=O)ccc1OCCN1CCCC1 | condition met
* O=c1c(SCCc2ccccc2)nccn1-c1ccc(OCCN2CCCC2)cc1 | condition met
* CC(C)N1CCN(c2ccc(-n3ccnc(NCCOc4ccccc4)c3=O)cc2)CC1 | condition not met
* COc1cc(-n2ccnc(NCCOc3ccccc3)c2=O)ccc1/C=C/CN1CCOCC1 | condition met
* CN(C(=O)OC(C)(C)C)C1CCN(c2ccc(-n3ccnc(NCCOc4ccccc4)c3=O)cc2)C1 (centres unmarked) | condition not met
* COc1cc(-n2ccnc(NCCCOc3ccccc3)c2=O)ccc1OC1CCN(C(=O)OC(C)(C)C)CC1 | condition not met
* COc1cc(-n2ccnc(NCCCOc3ccc(Cl)cc3Cl)c2=O)ccc1OCCN1CCCC1 | condition not met
* COc1cc(-n2ccnc(NCCc3ccccc3)c2=O)ccc1OCCCN1CCC(C#N)CC1 | condition met
* COc1cc(-n2ccnc(SCCc3ccccc3)c2=O)ccc1C=CCN1CCOCC1 | condition met
* COc1cc(-n2ccnc(NCCOc3ccccc3)c2=O)ccc1OC1CNC1 | condition met
* COc1cc(-n2ccnc(NCCc3ccc(Cl)cc3)c2=O)ccc1OCCN1CCCC1 | condition met
* COc1cc(-n2ccnc(NCCOc3ccccc3)c2=O)ccc1OCCN1CCC(O)C1 (centres unmarked) | condition not met
* COCc1cc(-n2ccnc(NCCOc3ccccc3)c2=O)ccc1OCCN1CCCC1 | condition not met
* O=c1c(NCCOc2ccccc2)nccn1-c1ccc(OCCN2CCCCC2)cc1 | condition not met
* COc1cc(-n2ccnc(NCCc3ccccc3)c2=O)ccc1N1CCC(N(C2CC2)C2CC2)C1 (centres unmarked) | condition not met
